# Tested on: P. aeruginosa
# Experiment: Growth inhibition screening (broth dilution)
# Format: cell-based, Pseudomonas aeruginosa
# Assay Setup: Pseudomonas aeruginosa
# Description: In vitro screening of the compounds (PS1–14) was performed to assess the antibacterial activity against three Gram-positive (Staphylococcus aureus, Enterococcus faecalis and Bacillus subtilis,) and three Gram-negative (Pseudomonas aeruginosa, Klebsiella pneumonia and Escherichia coli) bacterial strains using the standard NCCLS broth dilution assay. […] After incubation, the growth was measured by turbidity of the culture at 590 nm by spectrophotometer.
Metric Name: inhibition at 250 µg/mL (%)
Value expressed in %; do not type the unit.

A selection of reference data follows.
O=C1Nc2ccc(Br)cc2/C1=N\NC(=O)c1cc(-c2cccc(Br)c2)n[nH]1 [PS5]	100
CC1(C)S[C@@H]2[C@H](NC(=O)[C@H](N)c3ccccc3)C(=O)N2[C@H]1C(=O)O [AMP, ampicillin, reference compound]	100
COc1ccc2c(c1)NC(=O)/C2=N/NC(=O)c1cc(-c2cccc(Br)c2)n[nH]1 [PS12]	23
O=C1Nc2cc(Cl)ccc2/C1=N\NC(=O)c1cc(-c2cccc(Br)c2)n[nH]1 [PS3]	90

According to the records, this compound O=C1Nc2cc(F)ccc2/C1=N\NC(=O)c1cc(-c2cccc(Br)c2)n[nH]1 [PS7] displays inhibition at 250 µg/mL of 65

// recorded inhibition at 250 µg/mL for O=C1Nc2cc([N+](=O)[O-])ccc2/C1=N\NC(=O)c1cc(-c2cccc(Br)c2)n[nH]1 [PS14] : 3

----------
# Experiment: Cytotoxicity assay (MTT)
# Format: cell-based
# Assay Setup: human, HEK293 cells, 100 µg/mL, read-out: viable HEK293 cells
Metric Name: viability at 48 h, 100 µg/mL

viability at 48 h, 100 µg/mL recorded for this compound, O=C1Nc2ccc(F)cc2/C1=N\NC(=O)c1cc(-c2cccc(Br)c2)n[nH]1 [PS9] , is > 90%

----------
# System: B. subtilis
# Experiment: Growth inhibition screening (broth dilution)
# Format: cell-based, Bacillus subtilis
# Assay Setup: Bacillus subtilis
Label rule, in plain words: inhibition at 250 µg/mL of 80% and up is 1, under 80% is 0.

Q. Please tell me: is the compound O=C1Nc2cc([N+](=O)[O-])ccc2/C1=N\NC(=O)c1cc(-c2cccc(Br)c2)n[nH]1 at or over 80% in terms of inhibition at 250 µg/mL?
A. 1

----------
# Test system: B. subtilis
# Experiment: Growth inhibition screening (broth dilution)
# Type: cell-based, Bacillus subtilis
# Assay Setup: Bacillus subtilis
# inhibition at 250 µg/mL >= 60% gives True, anything below gives False

Consider the following illustrative entries.
O=C1Nc2c(Cl)cccc2/C1=N\NC(=O)c1cc(-c2cccc(Br)c2)n[nH]1	False
COc1ccc2c(c1)/C(=N\NC(=O)c1cc(-c3cccc(Br)c3)n[nH]1)C(=O)N2	True
COc1ccc2c(c1)NC(=O)/C2=N/NC(=O)c1cc(-c2cccc(Br)c2)n[nH]1	True
O=C(O)c1cn(C2CC2)c2cc(N3CCNCC3)c(F)cc2c1=O [CIP, Ciprofloxacin, reference compound]	True
O=C1Nc2ccc(Cl)cc2/C1=N\NC(=O)c1cc(-c2cccc(Br)c2)n[nH]1	True
O=C1Nc2ccc(F)cc2/C1=N\NC(=O)c1cc(-c2cccc(Br)c2)n[nH]1	True

Q. Reported inhibition at 250 µg/mL reaches at least 60% for Cc1ccc2c(c1)/C(=N\NC(=O)c1cc(-c3cccc(Br)c3)n[nH]1)C(=O)N2 ?
A. True

Q. Exam item: decide whether the reported inhibition at 250 µg/mL for O=C1Nc2cc(Cl)ccc2/C1=N\NC(=O)c1cc(-c2cccc(Br)c2)n[nH]1 is at least 60%.
A. True

Q. Determine whether this compound has inhibition at 250 µg/mL no lower than 60%: O=C1Nc2ccc(Br)cc2/C1=N\NC(=O)c1cc(-c2cccc(Br)c2)n[nH]1
A. False

Q. Does the compound O=C1Nc2c(cccc2[N+](=O)[O-])/C1=N\NC(=O)c1cc(-c2cccc(Br)c2)n[nH]1 have recorded inhibition at 250 µg/mL that is 60% or more?
A. False

Cited source: paper PMC9405123
